Test system: Rhizopus
Assay: Antifungal activity against Rhizopus sp. ATCC 2842 after 72 to 96 hrs by two fold serial dilution method
Assay type: functional
measured-endpoint: MIC

Q. Field request: MIC | item: C=CCN1[C@H](c2ccc(OC)cc2)C/C(=N\OCc2ccccc2)[C@@H](C)[C@@H]1c1ccc(OC)cc1 (relative stereo)
A. 25 µg/mL

Q. Field request: MIC | item: C=CCN1[C@H](c2ccc(Cl)cc2)C/C(=N\O)[C@@H](C)[C@@H]1c1ccc(Cl)cc1 (relative stereo)
A. 25 µg/mL

Q. Field request: MIC | item: C=CCN1[C@H](c2ccccc2)C/C(=N\OCc2ccccc2)[C@@H](C)[C@@H]1c1ccccc1 (relative stereo)
A. 25 µg/mL

Cited source: ChEMBL document CHEMBL2157909
